Test system: RXF 393 renal
Test: NCI tumour cell line growth inhibition, 48 h
Readings of TGI for the listed compounds

NC1=Nc2ccccc2Sc2cccc(F)c21 | > 100 µM

Quick one: give measured TGI for `COc1ccc(N2C(=O)/C(=C/c3ccc(N(CCC#N)CCC#N)cc3)N=C2c2ccccc2)cc1`
> 100 µM

Quick one: give measured TGI for `O=c1[nH]cnc2c1cnn2Cc1cnnn1COCCO`
> 100 µM

Quick one: give measured TGI for `CCOC(=O)c1nc2cc(Cl)ccc2[nH]c1=O`
> 100 µM

Quick one: give measured TGI for `COC(=O)c1cc(-c2ccc(S(C)(=O)=O)cc2)[nH]c1N/N=C/c1c(Cl)cccc1Cl`
> 100 µM

---

Tested on: HCT-116 colon
Test: NCI tumour cell line growth inhibition, 48 h
Think of 4 µM as a floor: if TGI stands on it or above, it is Fulfilled; beneath it, Not fulfilled.

Reference set (9 entries):
Cc1nc2ccc(NC3OCC(O)C(O)C3O)cc2c(=O)n1-c1ccccc1 (stereo not given) | Fulfilled
COC(=O)c1c(O)ccc2c1c1c(n2Cc2cccc(C)c2)C(=O)c2ccccc2C1 | Fulfilled
Cc1ccc(Nc2nc(-c3ccc(-c4ccc([N+](=O)[O-])cc4)o3)cs2)cc1 | Fulfilled
Fc1ccc(Nc2nc(Nc3ccc(-c4nc5ccccc5[nH]4)cc3)c3cn[nH]c3n2)cc1 | Not fulfilled
N#Cc1ccc(C2SCc3nc4ccccc4n32)cc1 (stereo not given) | Fulfilled
CC12O[C@H](C[C@@H](OC(=O)CCC(=O)O)[C@H]1O)n1c3ccccc3c3c4c(c5c6ccccc6n2c5c31)C(=O)NC4=O | Fulfilled
O=C1/C(=C/c2ccc([N+](=O)[O-])o2)Oc2ccc(Cl)cc21 | Not fulfilled
CN(C)CCC[N+]1=Nc2cccc3cccc(c23)N1 | Fulfilled
O=c1[nH]c2ccc(CC(=S)N3CCOCC3)cc2o1 | Fulfilled

Now take the following compound into account.
Determine whether this compound has TGI no lower than 4 µM: `O=S(=O)(/N=C(\NO)Nc1ccc(Cl)cc1)c1cc2ccccc2s1`
Fulfilled

---

Tested on: BT-549 breast
Test: NCI tumour cell line growth inhibition, 48 h; in the data active means GI50 below about 0.43 µM; inactive means the rest
Outcome field: choose from active, inactive

N#Cc1c(N)nc(N2CCOCC2)c(C#N)c1-c1c(Cl)cccc1Cl | inactive
O=C1/C(=C/c2ccc(C(F)(F)F)cc2)COc2ccc(O)c(O)c21 | inactive
COc1ccc([I+]c2ccc(OC)cc2)cc1 | inactive
CCS(=O)(=O)c1ccc(OC)c(Nc2ncc(-c3cccc(F)c3)o2)c1 | inactive
Cc1cc(N(CCNc2ccnc3cc(Cl)ccc23)Cc2ccc3c(c2)OCO3)nc(N2CCCC2)n1 | inactive

Outcome? CCOCCOCCOCCOCCOCCOCCOCCOCCOCCO (tested in a mixture with another compound)
inactive

Outcome? CC1=C(C(=O)Nc2ccc(Cl)c(Cl)c2)C(c2cccc(Cl)c2)NC(=S)N1 (stereo not given)
inactive

Outcome? CN(CCCCCl)P(=O)(OCc1ccc([N+](=O)[O-])o1)OCC1OC(n2cc([N+](=O)[O-])c(=O)[nH]c2=O)CC1O (stereo not given)
inactive

Outcome? `Cc1c(C(N)=O)sc2nc(C)n(/N=c3\scc(-c4ccccc4)n3Cc3ccccc3)c(=O)c12`
inactive

Outcome? `COc1ccc2c3/c(=C\c4ccc(N(C)C)cc4)c4ccccc4n3[n+](C)c2c1`
active

Outcome? `COC(=O)c1cc(-c2ccc(S(C)(=O)=O)cc2)[nH]c1N/N=C/c1c(Cl)cccc1Cl`
inactive

Outcome? `COc1ccc2c(c1)/C(=N/OC(C)=O)c1c-2c(OC)nc2ccccc12`
inactive

Outcome? `COc1ccc2c(c1)-c1c(c3cc(OC)ccc3n(CCN(C)C)c1=O)C2=O`
inactive

Outcome? `COc1cc(C(=O)n2nc(N)c3c(C)cc(C)nc32)cc(OC)c1OC`
inactive

Outcome? COc1ccc2nc3ccccc3c(NCCNCC(C)O)c2c1 (stereo not given)
inactive

meta.source: PubChem BioAssay (NCI)
